Target: Membrane-associated guanylate kinase, WW and PDZ domain-containing protein 3 (Homo sapiens)
Sequence (Q5TCQ9 whole entry): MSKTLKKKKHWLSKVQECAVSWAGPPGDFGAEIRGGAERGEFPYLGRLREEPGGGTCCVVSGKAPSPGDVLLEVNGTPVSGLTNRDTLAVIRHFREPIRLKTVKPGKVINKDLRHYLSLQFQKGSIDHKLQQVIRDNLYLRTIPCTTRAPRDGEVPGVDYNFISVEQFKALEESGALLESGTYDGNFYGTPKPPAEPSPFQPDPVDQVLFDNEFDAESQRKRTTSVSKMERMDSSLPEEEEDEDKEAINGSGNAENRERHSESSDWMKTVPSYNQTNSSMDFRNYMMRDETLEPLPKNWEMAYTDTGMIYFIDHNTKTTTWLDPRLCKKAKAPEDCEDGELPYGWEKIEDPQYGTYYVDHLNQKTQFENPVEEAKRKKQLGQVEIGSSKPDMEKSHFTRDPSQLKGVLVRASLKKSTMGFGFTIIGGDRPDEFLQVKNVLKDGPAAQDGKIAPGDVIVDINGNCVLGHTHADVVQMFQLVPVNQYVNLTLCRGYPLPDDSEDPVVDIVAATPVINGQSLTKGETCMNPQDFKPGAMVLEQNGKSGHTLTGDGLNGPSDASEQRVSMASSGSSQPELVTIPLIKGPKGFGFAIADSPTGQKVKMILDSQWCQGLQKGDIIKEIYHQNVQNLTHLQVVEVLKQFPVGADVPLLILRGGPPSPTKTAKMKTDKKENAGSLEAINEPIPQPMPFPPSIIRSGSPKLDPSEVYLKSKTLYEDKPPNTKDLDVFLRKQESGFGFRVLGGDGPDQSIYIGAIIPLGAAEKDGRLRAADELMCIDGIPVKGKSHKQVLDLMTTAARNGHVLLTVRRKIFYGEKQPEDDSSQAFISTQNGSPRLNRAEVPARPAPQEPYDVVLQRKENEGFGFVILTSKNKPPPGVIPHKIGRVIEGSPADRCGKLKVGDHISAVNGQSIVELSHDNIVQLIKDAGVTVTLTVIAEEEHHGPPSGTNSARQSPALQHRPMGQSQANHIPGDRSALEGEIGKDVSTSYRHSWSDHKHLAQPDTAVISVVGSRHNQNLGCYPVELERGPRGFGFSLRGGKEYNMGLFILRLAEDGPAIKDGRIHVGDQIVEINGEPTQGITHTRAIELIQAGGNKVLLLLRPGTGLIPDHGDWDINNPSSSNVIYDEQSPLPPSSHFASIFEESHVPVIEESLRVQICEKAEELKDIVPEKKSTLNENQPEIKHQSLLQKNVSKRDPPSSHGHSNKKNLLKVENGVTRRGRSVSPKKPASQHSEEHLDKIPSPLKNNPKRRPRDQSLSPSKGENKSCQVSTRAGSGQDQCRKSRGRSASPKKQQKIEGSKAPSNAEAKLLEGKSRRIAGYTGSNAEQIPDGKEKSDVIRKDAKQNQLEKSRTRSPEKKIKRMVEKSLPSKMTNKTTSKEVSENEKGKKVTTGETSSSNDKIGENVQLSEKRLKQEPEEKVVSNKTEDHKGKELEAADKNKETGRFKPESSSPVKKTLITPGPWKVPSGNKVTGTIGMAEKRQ
Assay: Inhibitory concentration for MAGI-3 PDZ2 domain
pIC50: −log10 of the molar value. Square brackets hold non-standard residues; d marks the D form. Peptide text beside a SMILES is read from it. NMeW = CN[C@@H](Cc1c[nH]c2ccccc12)C(=O)O; NMeI = CC[C@H](C)[C@H](NC)C(=O)O; NMeT = CN[C@H](C(=O)O)[C@@H](C)O; NMeQ = CN[C@@H](CCC(N)=O)C(=O)O
assay-readout: pIC50

Examples with their reported pIC50 follow.
CC[C@H](C)[C@H](NC(=O)[C@H](CCC(N)=O)NC(=O)[C@@H](NC(C)=O)[C@@H](C)O)C(=O)N(C)[C@H](C(=O)N[C@@H](Cc1c[nH]c2ccccc12)C(=O)N[C@H](C(=O)O)C(C)C)[C@@H](C)O (Ac-TQI[NMeT]WV-OH) :: 4.54
CC[C@H](C)[C@H](NC(C)=O)C(=O)N[C@H](C(=O)N[C@@H](Cc1c[nH]c2ccccc12)C(=O)N[C@H](C(=O)O)C(C)C)[C@@H](C)O (Ac-ITWV-OH) :: 4.83
CC[C@H](C)[C@H](NC(=O)[C@H](CCC(N)=O)NC(=O)[C@@H](NC(C)=O)[C@H](C)O)C(=O)NC(C(=O)N[C@@H](Cc1cn(C)c2ccccc12)C(=O)N[C@H](C(=O)O)C(C)C)[C@H](C)O (single isomer, unassigned) :: 4.47

(P) CC[C@H](C)[C@H](NC(=O)[C@H](CCC(N)=O)NC(=O)[C@@H](NC(C)=O)[C@@H](C)O)C(=O)NC(C(=O)N[C@@H](Cc1c[nH]c2ccccc12)C(=O)N[C@H](C(=O)O)C(C)C)[C@@H](O)CO (single isomer, unassigned)
(Q) CC[C@H](C)[C@H](NC(=O)[C@H](CCC(N)=O)NC(=O)[C@@H](NC(C)=O)[C@@H](C)O)C(=O)N[C@H](C(=O)N(C)[C@@H](Cc1c[nH]c2ccccc12)C(=O)N[C@H](C(=O)O)C(C)C)[C@@H](C)O (Ac-TQIT[NMeW]V-OH)
(R) CC[C@H](C)[C@H](NC(=O)[C@H](CCC(N)=O)NC(=O)[C@@H](NC(C)=O)[C@H](C)O)C(=O)N[C@@H](C(=O)N[C@@H](Cc1c[nH]c2ccccc12)C(=O)N[C@H](C(=O)NO)C(C)C)[C@H](C)O
Put the compounds in ascending order of pIC50. Output spec: a listing of the labels in the requested order. R, Q, P

(I) CC[C@H](C)[C@H](NC(=O)[C@H](CCC(N)=O)N(C)C(=O)[C@@H](NC(C)=O)[C@@H](C)O)C(=O)N[C@H](C(=O)N[C@@H](Cc1c[nH]c2ccccc12)C(=O)N[C@H](C(=O)O)C(C)C)[C@@H](C)O (Ac-T[NMeQ]ITWV-OH)
(II) CC[C@H](C)[C@@H](C(=O)N[C@H](C(=O)N[C@@H](Cc1c[nH]c2ccccc12)C(=O)N[C@H](C(=O)O)C(C)C)[C@@H](C)O)N(C)C(=O)[C@H](CCC(N)=O)NC(=O)[C@@H](NC(C)=O)[C@@H](C)O (Ac-TQ[NMeI]TWV-OH)
Smaller pIC50 value? Options are I and II Lab note: record the label of whichever item you select. II

Cited source for all entries: ChEMBL document CHEMBL1135310
